MEASURED_ON: human CTLA-4 (human) (UniProt P16410)
Sequence (P16410 36-223): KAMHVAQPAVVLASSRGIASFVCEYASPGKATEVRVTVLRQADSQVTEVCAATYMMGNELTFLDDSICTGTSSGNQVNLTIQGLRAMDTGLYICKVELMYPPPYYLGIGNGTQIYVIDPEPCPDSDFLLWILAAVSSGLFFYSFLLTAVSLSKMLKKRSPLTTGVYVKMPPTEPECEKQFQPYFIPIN
TEST_SUMMARY: flow cytometry, CHO cells expressing huCTLA4
READOUT_TYPE: MFI at 33.3 nM (MFI)
Kindly provide the numeric value in MFI only, without the unit symbol.

Study these solved cases before continuing.
binder="variant CD80 IgV-Fc V22A/E23D/Q33L/E35D/M47V (Fc fusion) VIHVTKEVKEVATLSCGHNVSADELAQTRIYWLKDKKMVLTMMSGDVNIWPEYKNRTIFDITNNLSIVILALRPSDEGTYECVVLKYEKDAFKREHLAEVTLSVKAD" val=3640
binder="variant CD80 IgV-Fc E35D/M47L/A71G/L85M/F92Y (Fc fusion) VIHVTKEVKEVATLSCGHNVSVEELAQTRIYWQKDKKMVLTMMSGDLNIWPEYKNRTIFDITNNLSIVILGLRPSDEGTYECVVMKYEKDAYKREHLAEVTLSVKAD" val=216000
binder="variant CD80 IgV-Fc A26E/Q33L/E35D/M47L/L85Q (Fc fusion) VIHVTKEVKEVATLSCGHNVSVEELEQTRIYWLKDKKMVLTMMSGDLNIWPEYKNRTIFDITNNLSIVILALRPSDEGTYECVVQKYEKDAFKREHLAEVTLSVKAD" val=1170
binder="variant CD80 IgV-Fc Q33L/E35D/M47I/L85Q (Fc fusion) VIHVTKEVKEVATLSCGHNVSVEELAQTRIYWLKDKKMVLTMMSGDINIWPEYKNRTIFDITNNLSIVILALRPSDEGTYECVVQKYEKDAFKREHLAEVTLSVKAD" val=20500
binder="variant CD80 IgV-Fc E35D/M47V/A71G/E88D (Fc fusion) VIHVTKEVKEVATLSCGHNVSVEELAQTRIYWQKDKKMVLTMMSGDVNIWPEYKNRTIFDITNNLSIVILGLRPSDEGTYECVVLKYDKDAFKREHLAEVTLSVKAD" val=212000
binder="variant CD80 IgV-Fc Q33L/E35D/M47L/A71G/F92S (Fc fusion) VIHVTKEVKEVATLSCGHNVSVEELAQTRIYWLKDKKMVLTMMSGDLNIWPEYKNRTIFDITNNLSIVILGLRPSDEGTYECVVLKYEKDASKREHLAEVTLSVKAD" val=2110
binder="variant CD80 IgV-Fc E35D/D46E/M47V/N63D/L85Q (Fc fusion) VIHVTKEVKEVATLSCGHNVSVEELAQTRIYWQKDKKMVLTMMSGEVNIWPEYKNRTIFDITDNLSIVILALRPSDEGTYECVVQKYEKDAFKREHLAEVTLSVKAD" val=274000

Now look at this entry.
Ask: Note MFI at 33.3 nM for the binder shown: variant CD80 IgV-Fc Q33L/E35D/T41S/M43I (Fc fusion) VIHVTKEVKEVATLSCGHNVSVEELAQTRIYWLKDKKMVLSMISGDMNIWPEYKNRTIFDITNNLSIVILALRPSDEGTYECVVLKYEKDAFKREHLAEVTLSVKAD
Reply: 6390

All values here come from patent US20220177587A1.
